- System Under Test: D(1A) dopamine receptor (Homo sapiens)
- Sequence (P21728 whole entry): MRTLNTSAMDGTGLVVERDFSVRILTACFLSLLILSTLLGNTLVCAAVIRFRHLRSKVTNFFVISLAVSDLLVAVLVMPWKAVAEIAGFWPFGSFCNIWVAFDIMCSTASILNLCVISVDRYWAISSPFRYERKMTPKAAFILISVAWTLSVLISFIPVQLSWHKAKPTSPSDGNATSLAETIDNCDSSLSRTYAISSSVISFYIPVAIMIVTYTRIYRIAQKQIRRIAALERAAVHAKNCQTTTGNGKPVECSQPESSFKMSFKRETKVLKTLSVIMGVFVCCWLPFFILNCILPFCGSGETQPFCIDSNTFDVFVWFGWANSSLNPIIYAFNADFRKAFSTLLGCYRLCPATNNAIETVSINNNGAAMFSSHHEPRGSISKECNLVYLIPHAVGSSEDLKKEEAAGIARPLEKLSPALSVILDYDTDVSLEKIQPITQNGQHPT
- Test Protocol: Inhibition of [3H]SCH23390 binding to dopamine D1 receptor (unknown origin) expressed in human HEK293 cells at 10 uM by liquid scintillation counter relative to control
- Format: cell-based

Molecule | Quantity Unit | inhibition
COc1ccc2c(c1OC)CN1CCc3cc4c(cc3[C@@H]1C2)OCO4 | % | 98.3
COc1cc2c(cc1OC)[C@@H]1Cc3ccc(OC)c(O)c3CN1CC2 [TETRAHYDROPALMATRUBINE] | % | 87.7
COc1ccc2c(c1)C[C@H]1c3cc(O)c(OC)cc3CCN1C2 | % | 97.5
COc1cc2c(cc1O)[C@@H]1Cc3cc(C)cc(C)c3CN1CC2 | % | 99
CN1CCc2cc(Cl)c(O)cc2C(c2ccccc2)C1 (stereo not given) | % | 100
COc1c(O)ccc2c1CN1CCc3cc4c(cc3[C@@H]1C2)OCC4 | % | 99.3
COc1c(O)ccc2c1CN1CCc3cc4c(cc3[C@@H]1C2)OCO4 | % | 99.7
COc1cc2c(c(OC)c1)CN1CCc3cc(OC)c(O)cc3[C@@H]1C2 | % | 99.8
COc1c(O)ccc2c1CN1CCc3cc4c(cc3[C@H]1C2)OCO4 | % | 95.8
COc1cc2c(cc1OC)[C@H]1Cc3ccc(OC)c(O)c3CN1CC2 | % | 35.9

Value source: ChEMBL document CHEMBL2331343
